Target: T1, c-erbB-2 ECD with a Ser-Gly-His6 C-terminal fusion (UniProt P04626 23-652)
T1 construct: extracellular domain; Expressed from CHO cells, IMAC purified; coupled to a CM5 chip, coated on plates, or biotinylated with NHS-LC-biotin; also called c-erbB-2 extracellular domain; biotinylated c-erbB-2 ECD
Test: SPR BIAcore
Measured Property: koff (s⁻¹)

INSERT INTO measurements (binder, measured_property, obs_value) VALUES
  ('C6ML3-8 (scFv) scFv: QVQLLQSGAELKKPGESLKISCKGSGYSFTSYWIAWVRQMPGKGLEYMGLIYPGDSDTKYSPSFQGQVTISVDKSVSTAYLQWSSLKPSDSAVYFCARHDVGYCSSSNCAKWPEYFQHWGQGTLVTVSSGGGGSGGGGSGGGGSQSVLTQPPSVSAAPGQKVTISCSGSSSNIGNNYVSWYQQLPGTAPKLLIYGHTNRPAGVPDRFSGSKSGTSASLAISGFRSEDEADYYCAAWDHLRWGWVFGGGTKLTVLG', 'koff', 0.0017),
  ('C6HL3-10 (scFv, label as printed (probably C6ML3-10)) scFv: QVQLLQSGAELKKPGESLKISCKGSGYSFTSYWIAWVRQMPGKGLEYMGLIYPGDSDTKYSPSFQGQVTISVDKSVSTAYLQWSSLKPSDSAVYFCARHDVGYCSSSNCAKWPEYFQHWGQGTLVTVSSGGGGSGGGGSGGGGSQSVLTQPPSVSAAPGQKVTISCSGSSSNIGNNYVSWYQQLPGTAPKLLIYGHTNRPAGVPDRFSGSKSGTSASLAISGFRSEDEADYYCAAWEDPWYGWVFGGGTKLTVLG', 'koff', 0.0014),
  ('C6ML3-11 (scFv) scFv: QVQLLQSGAELKKPGESLKISCKGSGYSFTSYWIAWVRQMPGKGLEYMGLIYPGDSDTKYSPSFQGQVTISVDKSVSTAYLQWSSLKPSDSAVYFCARHDVGYCSSSNCAKWPEYFQHWGQGTLVTVSSGGGGSGGGGSGGGGSQSVLTQPPSVSAAPGQKVTISCSGSSSNIGNNYVSWYQQLPGTAPKLLIYGHTNRPAGVPDRFSGSKSGTSASLAISGFRSEDEADYYCAAWDYALWGWVFGGGTKLTVLG', 'koff', 0.0022);
